Where do these numbers come from? They come from PubChem BioAssay (NCI).

test system: HOP-92 NSCLC; test: NCI-60 one-dose screen, 48 h; details: 10 µM
About 83,000 compounds went through this panel and 20% of them were active in at least one assay; those are over-represented in the sample as a whole. Activity calls are given as the source filed them. Rule for the calls: active = growth percent below 10; inactive = the rest.
Please state which outcome applies, choosing from active, inactive

compound	answer label
CCCCCSc1ccc2nc(NC(=O)OCC)sc2c1	inactive
O=C(Nc1ccccc1)Nc1ccc(Nc2ncnc3sc4c(c23)CCCC4)cc1	inactive
Cc1ccc(NCc2cn(-c3ccc(C(=O)O)cc3)nc2-c2ccc(C(=O)O)cc2)cc1	inactive

q: Test call, this compound: COc1cc(N)c2nccc(C)c2c1OC
a: inactive

q: Test call, this compound: Clc1ccc(N/N=C(/c2ccccc2)c2ccccn2)nc1
a: inactive
